- Tested on: Raji cells, CD33-non-expressing
- test.details: In vitro cell assay, cell viability by MTS, Raji
- Format: cell-based
- measurement.setup: Homo sapiens, 96 h, read-out: Average IC50, Raji
- Procedure: Her2-Target expressing (BT474 (breast cancer), N87 (gastric cancer), MDA-MB-361-DYT2 (breast cancer)) or Her2-non-expressing (MDA-MB-468, HT29) cells, or 0033-target expressing HL60, HEL92.1.7, NB4, TF-1 or 0033-non-expressing (Raji) cells were seeded in 96-well cell culture plates for 24 hours before treatment. […] Cell viability was determined by CellTiter 96® AQueous One Solution Cell Proliferation MTS Assay (Promega, Madison WI) 96 hours after treatment. […]
# IC50 values compiled below
// note: answer is a bare numeric in nM

INSERT INTO results (compound, units, readout_value) VALUES
  ('CCN[C@H]1CO[C@@H](O[C@H]2[C@H](O[C@H]3C#C/C=C\C#C[C@]4(O)CC(=O)C(NC(=O)OC)=C3/C4=C\CSSC(C)(C)c3ccc(N)cc3)O[C@H](C)[C@@H](NO[C@H]3C[C@H](O)[C@H](SC(=O)c4c(C)c(I)c(O[C@@H]5O[C@@H](C)[C@H](O)[C@@H](OC)[C@H]5O)c(OC)c4OC)[C@@H](C)O3)[C@@H]2O)C[C@@H]1OC [Example P27]', 'nM', 0.002),
  ('CCN[C@H]1CO[C@@H](O[C@H]2[C@H](O[C@H]3C#C/C=C\C#C[C@]4(O)CC(=O)C(NC(=O)OC)=C3/C4=C\CSSc3ccc(C(=O)O)cc3)O[C@H](C)[C@@H](NO[C@H]3C[C@H](O)[C@H](SC(=O)c4c(C)c(I)c(O[C@@H]5O[C@@H](C)[C@H](O)[C@@H](OC)[C@H]5O)c(OC)c4OC)[C@@H](C)O3)[C@@H]2O)C[C@@H]1OC [Example P13]', 'nM', 0.022);

Next, consider the following compound.
Looking up CCN[C@H]1CO[C@@H](O[C@H]2[C@H](O[C@H]3C#C/C=C\C#C[C@]4(O)CC(=O)C(NC(=O)OC)=C3/C4=C\CSSC(C)(C)CC(=O)NN)O[C@H](C)[C@@H](NO[C@H]3C[C@H](O)[C@H](SC(=O)c4c(C)c(I)c(O[C@@H]5O[C@@H](C)[C@H](O)[C@@H](OC)[C@H]5O)c(OC)c4OC)[C@@H](C)O3)[C@@H]2O)C[C@@H]1OC [Example P7] , I see its IC50 listed as 0.161
